Reported switch fluorescence ratio values follow for various sequences
System: ATP;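 note: ATP exposure 15 min at 22 °C before imaging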
Assay: switch fluorescence ratio, 500 uM ATP over buffer (Cy3 cluster intensity, sum of 5 cycles each) (fold (ratio)); higher = stronger signal-on switching upon ATP binding; sequences stand for … in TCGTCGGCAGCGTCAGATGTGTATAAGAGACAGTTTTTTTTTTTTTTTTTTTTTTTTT…TC
Conditions: aptamer strand: ATP DNA aptamer (quencher-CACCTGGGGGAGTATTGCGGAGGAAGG + anchor), 100 nM annealed; ATP concentration: 500 uM

seq	switch fluorescence ratio
CCAAATAGGA	1.01
TTAGGGGGGT	1.05
ATGCGACGGC	1.05
TTACGGGGAC	1.08
TGGAGTCGTG	0.973
CGGGGCCATG	1.02
TTGGCTGCGG	0.95
GGGTTTTCGA	1.01
TCGACTGGGG	1
GGCTGGGTAC	1.12

---

System: ATP;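 note: ATP exposure 15 min at 22 °C before imaging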
Assay: switch fluorescence ratio, 500 uM ATP over buffer (Cy3 cluster intensity, sum of 5 cycles each) (fold (ratio)); higher = stronger signal-on switching upon ATP binding; sequences stand for … in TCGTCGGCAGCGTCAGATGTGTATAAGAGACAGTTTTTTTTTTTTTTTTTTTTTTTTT…TC
Details: aptamer strand: ATP DNA aptamer (quencher-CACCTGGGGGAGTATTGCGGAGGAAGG + anchor), 100 nM annealed; ATP concentration: 500 uM

seq	measured target	switch fluorescence ratio
TGGAAGGGTA	ATP	0.99
GACTGGGTG	ATP	1.04
AAAACTTATG	ATP	1.03
TGTTAAAAAT	ATP	1.01
ATTGTGGGCG	ATP	0.952
GATGTCGTGG	ATP	1.01
TTTTGGGCGT	ATP	1
TCATCCCGGG	ATP	1.05
AATGAAGGGG	ATP	0.987
AGTTTCTTAC	ATP	1.01
TTGAGGGCAG	ATP	1
ACCATATTTG	ATP	1.04
GGTGGTGAGC	ATP	1
CCAAGTGGGC	ATP	1.03
CGAATAAGAA	ATP	0.938
TCGTTTTGTT	ATP	0.975
TAGAGATCTG	ATP	0.996
GATTGGTTAT	ATP	0.962
TCCATCGGGG	ATP	1.01
TCCAGGGGAA	ATP	1.03
CTTGCCGATT	ATP	0.968
CGGGTGGGTG	ATP	1.01
GAGCTAGGAA	ATP	0.981
TAGGGCTTAG	ATP	1.02
TTTTCGGGCA	ATP	0.992
GATATAGTGC	ATP	1.01
CGGGGCAAAA	ATP	1.04
AAGGCGGATA	ATP	0.96
CTGCTAGGTA	ATP	0.998
TAGTAGCCTT	ATP	1.03
ATATATTGGT	ATP	0.992
TCGTACTGGT	ATP	0.99
AGAGTGGTCA	ATP	0.988
TTTATCCAAT	ATP	0.984
GTTTCATGAA	ATP	1.01
ATGCGTATTT	ATP	0.975
ATTATGGGGT	ATP	1
ACTCGGGTAG	ATP	1.03
TGGCCGGGTT	ATP	1.33
GCTATGAATG	ATP	1.01
GCTTAATTAG	ATP	1.02
TATTTCGGTG	ATP	0.982
ATGGTTATGT	ATP	1.03
